Assay: Single oral pharmacokinetics of the free form in suspension in male rats
Type: in vivo, male Sprague Dawley rats
Conditions: male, Sprague Dawley, rat, plasma, po, 150 mg/kg, male rats; free form; 150 mg/kg; read-out: t1/2 (converted)
test_readout: half-life

[[record]]
structure_as_smiles = "Cc1ccc(NC(=O)C2(c3ccc4c(c3)OC(F)(F)O4)CC2)nc1-c1cccc(C(=O)O)c1"
measured = "8.07 h"


* * *

Test: Acute oral toxicity study in rats
Conditions: rat, in vivo, po
test_readout: MTD at 14 days

[[record]]
structure_as_smiles = "Cc1ccc(NC(=O)C2(c3ccc4c(c3)OC(F)(F)O4)CC2)nc1-c1cccc(C(=O)O)c1"
measured = "> 2000 mg/kg"


* * *

Experiment: Toxicokinetics in acute oral toxicity study in rats
Assay type: in vivo
Conditions: Sprague Dawley, rat, plasma, po, 2000 mg/kg, Male, read-out: AUC0-24 h
test_readout: AUC(0-t) (µg·h/mL)

[[record]]
molecule = "Cc1ccc(NC(=O)C2(c3ccc4c(c3)OC(F)(F)O4)CC2)nc1-c1cccc(C(=O)O)c1 [Compound 1]"
endpoint_unit = "µg·h/mL"
measured = 6110


* * *

Assay: Toxicokinetics in acute oral toxicity study in rats
Type: in vivo
Conditions: male, rat, plasma, po, males at 500 mg/kg
From the text: Compound 1 was also well absorbed in rats with time to reach maximum plasma concentrations(tmax) ranging from 4.0 to 24.0 hr.
test_readout: Cmax (µg/mL)

[[record]]
structure_as_smiles = "Cc1ccc(NC(=O)C2(c3ccc4c(c3)OC(F)(F)O4)CC2)nc1-c1cccc(C(=O)O)c1"
endpoint_unit = "µg/mL"
measured = 135


* * *

Test: Tissue distribution in male rats after single oral dose of 75 mg/kg
Type: in vivo, male Sprague Dawley rats
Conditions: Sprague Dawley, rat; male rats; 75 mg/kg oral; Lung; read-out: Clast
test_readout: concentration at 48 hr (ng/mL)

[[record]]
structure_as_smiles = "Cc1ccc(NC(=O)C2(c3ccc4c(c3)OC(F)(F)O4)CC2)nc1-c1cccc(C(=O)O)c1"
endpoint_unit = "ng/mL"
measured = 189


* * *

Assay: Toxicokinetics in 14-day oral toxicity study in rats
Settings: male, Sprague Dawley, rat, in vivo, 600 mg/kg/day, Study Day 14, Male
test_readout: Tmax (h)

[[record]]
compound = "Cc1ccc(NC(=O)C2(c3ccc4c(c3)OC(F)(F)O4)CC2)nc1-c1cccc(C(=O)O)c1 [Compound 1]"
endpoint_unit = "h"
measured = 10


* * *

Assay: Tissue distribution in male rats after single oral dose of 75 mg/kg
Type: in vivo, male Sprague Dawley rats
Conditions: male, Sprague Dawley, rat, pancreas, po, 75 mg/kg, male rats; 75 mg/kg oral; 12 hr; read-out: Tissue/Plasma Ratio, Pancreas
test_readout: Kp at 12 hr

[[record]]
compound = "Cc1ccc(NC(=O)C2(c3ccc4c(c3)OC(F)(F)O4)CC2)nc1-c1cccc(C(=O)O)c1 [Compound 1]"
measured = 0.15


* * *

Assay: Tissue distribution in male rats after single oral dose of 75 mg/kg
Format: in vivo, male Sprague Dawley rats
Details: Sprague Dawley, rat; male rats; 75 mg/kg oral; Brain; read-out: Clast
test_readout: concentration at 12 hr (ng/mL)

[[record]]
compound = "Cc1ccc(NC(=O)C2(c3ccc4c(c3)OC(F)(F)O4)CC2)nc1-c1cccc(C(=O)O)c1 [Compound 1]"
endpoint_unit = "ng/mL"
measured = 546

